Cited source for all entries: PubChem BioAssay

molecular target: Voltage-gated potassium channel subunit beta-2 (Rattus norvegicus); assay: KvBeta positive modulators, primary screen, biochemical, NADPH fluorescence (AID 623); conditions: Recombinant KvBeta, NADPH fluorescence decrease slope, 10 min; at 10 µM; active compounds read low;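 also: fluorescence intensity change per second fitted from 20 to 320 s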
measured_endpoint: NADPH fluorescence slope
Reply briefly: the number, and no unit.

compound: O=C(C1CCCN(S(=O)(=O)c2cnc[nH]2)C1)N1CCN(c2ccc(Cl)cc2)CC1 (stereo not drawn)
NADPH fluorescence slope: 3.4e-05
//
compound: O=C(COc1ccc(Cl)cc1)NCc1nnc(SCC(=O)Nc2ccc3c(c2)OCCO3)o1
NADPH fluorescence slope: -3.4e-06
//
compound: CCCCC(=O)NCCc1cc2c(C)ccc(C)c2[nH]c1=O
NADPH fluorescence slope: -3.7e-05

// lookup NADPH fluorescence slope for CC(NC(=O)c1noc2c1CCCCC2)c1ccccc1 (stereo not drawn) -3.4e-05

// lookup NADPH fluorescence slope for Cn1c(=O)c2c(nc(NCc3ccco3)n2Cc2ccc(Cl)cc2Cl)n(C)c1=O -1.9e-05

// lookup NADPH fluorescence slope for CCOC(=O)c1ccc2[nH]c3c(c2c1)CN(C)CC3 -5.6e-05

// lookup NADPH fluorescence slope for Cc1cc(C(=O)NCc2ccc(S(N)(=O)=O)cc2)cs1 -2.4e-05

// lookup NADPH fluorescence slope for Cc1ccc(NC(=O)CSc2nnc(-c3ccco3)c(-c3ccco3)n2)cc1 -0.000112

* * *

biological target: Alpha-2C adrenergic receptor (Homo sapiens) (UniProt P18825); assay: modulators of alpha2C/GIRK thallium flux, primary screen, cell-based, HEK293 alpha2C/GIRK1/2 (AID 624); settings: thallium flux BTC fluorescence, at 10 µM, actives lie on both sides;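 also: slope of fluorescence ratio to pre-addition baseline per second over 15 to 24 s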
Sequence (P18825 whole entry, looked up): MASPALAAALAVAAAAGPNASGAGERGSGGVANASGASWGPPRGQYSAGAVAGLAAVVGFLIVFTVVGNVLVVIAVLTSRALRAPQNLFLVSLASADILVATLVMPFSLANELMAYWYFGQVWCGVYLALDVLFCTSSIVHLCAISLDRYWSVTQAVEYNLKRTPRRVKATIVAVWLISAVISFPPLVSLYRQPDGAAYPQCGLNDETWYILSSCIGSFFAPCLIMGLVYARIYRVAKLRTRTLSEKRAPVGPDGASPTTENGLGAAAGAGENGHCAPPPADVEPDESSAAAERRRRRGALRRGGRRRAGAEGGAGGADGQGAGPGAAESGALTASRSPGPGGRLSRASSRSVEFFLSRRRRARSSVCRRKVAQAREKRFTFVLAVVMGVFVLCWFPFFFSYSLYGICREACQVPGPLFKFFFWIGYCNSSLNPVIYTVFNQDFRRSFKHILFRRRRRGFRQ
Consider the following molecules and their measured slope readings.
Reply briefly: the number, and no unit.

Use these answered entries as a reference point.
molecule: CCCCN(C)C(=O)CS(=O)(=O)Cc1nc(-c2cccc(OC)c2)oc1C
slope: 0.00718
//
molecule: O=C(NCCN1CCOCC1)NC1(C(F)(F)F)Oc2ccc(Cl)cc2O1 (centres undefined)
slope: 0.00481
//
molecule: CCOC(=O)C1CCN(Cc2ccc(F)c(Br)c2)CC1
slope: 0.00431
//
molecule: C=C(Cl)COC(=O)[C@H]1C2C=CC(C2)C1C(=O)O (some centres undefined)
slope: 0.00591
//
molecule: O=c1sc(Nc2ccccc2)nc2ccsc12
slope: 0.00308

// lookup slope for O=C(CSc1ncnc2ccccc12)NCCCO 0.00699

// lookup slope for COCCn1nnnc1C(c1cccs1)N1CCN(c2cc(C)ccc2C)CC1 (centres undefined) 0.00567

* * *

target: Voltage-gated potassium channel subunit beta-2 (Rattus norvegicus); assay: KvBeta positive modulators, primary screen, biochemical, NADPH fluorescence (AID 623); settings: Recombinant KvBeta, NADPH fluorescence decrease slope, 10 min; at 10 µM; active compounds read low;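 also: fluorescence intensity change per second fitted from 20 to 320 s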
measured_endpoint: NADPH fluorescence slope
Reply briefly: the number, and no unit.

compound: Cn1c(NCc2ccccc2)nc2c1c(=O)n(Cc1ccccc1)c(=O)n2C
tgt: Voltage-gated potassium channel subunit beta-2 (Rattus norvegicus)
NADPH fluorescence slope: -8.2e-05
//
compound: CCOC(=O)c1c(N)sc(C(=O)N2CCOCC2)c1C
tgt: Voltage-gated potassium channel subunit beta-2 (Rattus norvegicus)
NADPH fluorescence slope: 2.6e-05
//
compound: COc1ccc(C(=O)Oc2c(CN3CCOCC3)cc(Cl)c3cccnc23)cc1OC
tgt: Voltage-gated potassium channel subunit beta-2 (Rattus norvegicus)
NADPH fluorescence slope: -2.5e-05
//
compound: CC(NC(=O)c1cc2c(=O)n(C)c3ccccc3c2n1C)c1ccc2c(c1)OCCO2 (centres undefined)
tgt: Voltage-gated potassium channel subunit beta-2 (Rattus norvegicus)
NADPH fluorescence slope: -2.2e-05
//
compound: Cc1ccc(CNc2oc(COc3ccccc3Cl)nc2C#N)cc1
tgt: Voltage-gated potassium channel subunit beta-2 (Rattus norvegicus)
NADPH fluorescence slope: 2.1e-06
//
compound: CCN(CC)Cc1csc(C(N)=O)c1
tgt: Voltage-gated potassium channel subunit beta-2 (Rattus norvegicus)
NADPH fluorescence slope: -6.9e-06

// lookup NADPH fluorescence slope for CCOc1ccc2c(c1)n([O-])c1c([n+]2=O)CCCC1 -0.000101

// lookup NADPH fluorescence slope for O=C1OCc2cc(NC(=O)C3CCCO3)ccc21 (centres undefined) 5.7e-07

* * *

target: Voltage-gated potassium channel subunit beta-2 (Rattus norvegicus); assay: KvBeta enzyme negative modulators, primary screen, biochemical, NADPH fluorescence (AID 622); conditions: recombinant KvBeta, 4-cyanobenzaldehyde reduction, at 10 µM, active compounds read high;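 also: slope of raw intensity against log time taken from 70 to 1610 s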
Decide using fluorescence slope: a value greater than or equal to -0.4 is condition met, a smaller one is condition not met.

Example cases with answers are listed next.
compound: COc1ccc(C(=O)c2oc3nc(C)cc(C)c3c2N)cc1
group_label: condition met
--
compound: O=S(=O)(c1cccc2nsnc12)N1CCN(C/C=C/c2ccccc2)CC1
group_label: condition not met
--
compound: CCc1ccc(-c2cn3nc(C)c(C)nc3n2)cc1
group_label: condition met

For this compound, is measured fluorescence slope -0.4 or higher? Cn1c(=O)c2ncn(CC(=O)NCCOc3ccc(C(C)(C)C)cc3)c2n(C)c1=O condition not met

For this compound, is measured fluorescence slope -0.4 or higher? COc1ccc(-n2ncc3c(N4CCN(c5cccc(C)c5C)CC4)ncnc32)cc1 condition not met

For this compound, is measured fluorescence slope -0.4 or higher? Cn1c(=O)c2c(nc(Br)n2CCSc2nc3ccccc3o2)n(C)c1=O condition met

* * *

Consider the following molecules and their measured inhibition readings.
assay: inhibitors of E-selectin induction by TNFa, primary screen, imaging, HUVEC, immunofluorescence, MLSMR starter and 10KST1 sets (AID 487); conditions: HUVEC TNFalpha-induced E-selectin immunofluorescence imaging, at 2 µM; active compounds read high;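 also: signal is fraction of cell area covered by stained E-selectin grains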
Numbers only here, please. The scale is %.

molecule: Cn1c(CSc2ncn[nH]2)nc2ccccc21
inhibition / %: -75.5
//
molecule: O=C(CSc1ncnc2c1oc1ccccc12)Nc1ccccc1C(F)(F)F
inhibition / %: -13.2
//
molecule: Cc1ccc(O)c(C(CC(=O)N2CCCC2)c2ccccc2)c1 (centres undefined)
inhibition / %: -33

// lookup inhibition for Cc1ccc2oc(-c3ccccc3C(=O)O)cc(=O)c2c1 -59.4

// lookup inhibition for CCCNS(=O)(=O)c1ccc(OCC(=O)NCc2ccco2)cc1 -76.7

// lookup inhibition for CCCNS(=O)(=O)c1ccc(OCC(=O)NCc2ccc3c(c2)OCO3)cc1 -93.9

// lookup inhibition for CCOC(=O)N1CCN(Cc2nc3c(c(=O)n(C)c(=O)n3C)n2Cc2ccccc2)CC1 0.1

// lookup inhibition for COc1cc(Cn2ccnc2)c(OC)cc1Cn1ccnc1 -64

// lookup inhibition for O=C(Cc1ccccc1)Nc1ccc(CN2CCOCC2)cc1 -2.9

// lookup inhibition for CC(=O)C1=C(C)NC(C)=C(C(C)=O)C1c1cccs1 28.1

// lookup inhibition for O=C(Cn1ncc2c(=O)oc3ccccc3c21)NCC1CCCO1 (centres undefined) -40.1

* * *

experiment: inhibitors of poly I:C-induced TLR3 signaling, primary screen, cell-based, poly I:C stimulus, luciferase, 10K MLSCN set (AID 602277); settings: HEK293-TLR3 RL24 IRF3 luciferase reporter, at 10 µM, active compounds read high
measured_endpoint: inhibition (%)
Numbers only here, please. The scale is %.

compound: CCSc1oc(-c2cccs2)nc1S(=O)(=O)c1ccccc1
uom: %
inhibition: 34

// lookup inhibition for CCC(C)NC(=O)C1(C)CCC(=O)N1CCc1ccc(OC)c(OC)c1 (stereo unspecified) 9.44

// lookup inhibition for O=C(NC1CCCC1)c1ccc2nc[nH]c2c1 13.1

// lookup inhibition for CCOC(=O)c1[nH]nc(N)c1NC(=O)c1ccc(Cl)cc1Cl -22.5

// lookup inhibition for O=C(Nc1ccccc1C(F)(F)F)c1cc(S(=O)(=O)N2CCOCC2)ccc1F 21.8

// lookup inhibition for CC(=O)N(C)C1(c2nnnn2CCOC(=O)Nc2cccc3ccccc23)CCCC1 21.8

* * *

test: inhibitors of E-selectin induction by TNFa, primary screen, imaging, HUVEC, immunofluorescence, MLSMR starter and 10KST1 sets (AID 487); conditions: HUVEC TNFalpha-induced E-selectin immunofluorescence imaging, at 2 µM; active compounds read high;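 also: signal is fraction of cell area covered by stained E-selectin grains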
measured_endpoint: inhibition (%)
Numbers only here, please. The scale is %.

Use these answered entries as a reference point.
molecule: Cc1ccnc(SCCn2c(N3CCN(Cc4ccccc4)CC3)nc3c2c(=O)[nH]c(=O)n3C)n1
measured_endpoint: inhibition
reported_result: -36.7

molecule: O=C(NCC1CCCO1)C1CCCN(Cc2cnn(-c3ccccc3)c2-n2cccc2)C1 (stereo not drawn)
measured_endpoint: inhibition
reported_result: -10.5

molecule: CCOc1cccc(OCCCCn2ccnc2)c1
measured_endpoint: inhibition
reported_result: -124

molecule: O=C(CSCc1ccc(F)cc1)NC1CCCC1
measured_endpoint: inhibition
reported_result: 33

molecule: CCOC(=O)C1CCN(c2c(Nc3ccc4c(c3)OCCO4)c(=O)c2=O)CC1
measured_endpoint: inhibition
reported_result: -129

// lookup inhibition for COC(=O)[C@H]1CCCN1C(=O)Nc1cccc(Oc2c(F)c(F)c(F)c(F)c2F)c1 2.5

// lookup inhibition for CCOC(=O)/N=C(/NC(=O)Nc1ccc(C(=O)OCC)cc1)OC 7.6

// lookup inhibition for O=c1c2c3c(sc2n2cnnc2n1C1CCCCC1)CCC3 -2

// lookup inhibition for CCCCC(=O)NCCNc1nc2c(c(=O)n(C)c(=O)n2C)n1Cc1ccccc1 28.6

// lookup inhibition for Cc1cc(=O)oc(C)c1C(=O)n1nc(C)c2c1C[C@@H]1[C@H]2C1(C)C -44.9

// lookup inhibition for CCOC(=O)C1CCN(c2c(NCCN3CCN(c4ccccc4)CC3)c(=O)c2=O)CC1 -115
